src = ChEMBL document CHEMBL1268909

PROTOCOL TEXT: Solubility of the compound at pH 7
Type: physicochemical
SETUP CONDITIONS: buffer
MEASUREMENT TYPE: solubility

Briefly, solubility measured for "NC(=O)c1cc(-c2ccnc(N)n2)[nH]c1-c1cccs1" : > 225 µM

Briefly, solubility measured for "NC(=O)c1c(-c2ccccc2)[nH]c(-c2ccnc(N)n2)c1I" : > 225 µM

Briefly, solubility measured for "NC(=O)c1cc(-c2nc(N)ncc2F)[nH]c1-c1ccccc1" : > 225 µM
